meta.source: patent US20250051443A1

TESTED_SYSTEM: human CD3 (human, UniProt P07766 23-207; P09693 23-182; P04234 22-171)
ASSAY_NAME: cell-based or functional assay
MEASURED_METRIC: EC50 of dTomato induction (CD69 promoter), Jurkat-CD69-dTomato cells, 24 h (µg/mL)
// return numeric value only (unit: µg/mL, not printed)

>>> endpoint_result("F332-1C9 (antibody, mouse IgG2a, V domains shown, Sister clones 1A10, 5H8, 8B11 share the same entries; also called F332-1C9-2; F332-1C9 (1A10, 5H8, 8B11)) VH: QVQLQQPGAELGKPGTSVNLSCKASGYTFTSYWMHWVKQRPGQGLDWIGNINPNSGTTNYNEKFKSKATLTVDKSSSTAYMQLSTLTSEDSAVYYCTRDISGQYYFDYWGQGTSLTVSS VL: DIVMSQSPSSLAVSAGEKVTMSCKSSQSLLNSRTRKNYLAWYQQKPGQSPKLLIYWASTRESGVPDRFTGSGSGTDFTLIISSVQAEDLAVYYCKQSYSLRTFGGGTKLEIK")
0.2

# return recorded EC50 of dTomato induction (CD69 promoter), Jurkat-CD69-dTomato cells, 24 h for entry F332-1E2 (antibody, mouse IgG2a, V domains shown, Sister clone 8C5 shares the same entries; also called F332-1E2-2; F332-1E2 (8C5)) VH: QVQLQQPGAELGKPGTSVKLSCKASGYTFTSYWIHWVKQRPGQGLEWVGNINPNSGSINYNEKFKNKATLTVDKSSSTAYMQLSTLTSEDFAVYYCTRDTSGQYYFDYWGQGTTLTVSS VL: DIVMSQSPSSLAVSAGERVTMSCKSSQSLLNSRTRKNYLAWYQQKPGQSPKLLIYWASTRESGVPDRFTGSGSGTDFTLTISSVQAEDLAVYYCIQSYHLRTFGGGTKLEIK
0.16

# return recorded EC50 of dTomato induction (CD69 promoter), Jurkat-CD69-dTomato cells, 24 h for entry F282-2D5 (antibody, V domains shown, also called F282-2D5-2) VH: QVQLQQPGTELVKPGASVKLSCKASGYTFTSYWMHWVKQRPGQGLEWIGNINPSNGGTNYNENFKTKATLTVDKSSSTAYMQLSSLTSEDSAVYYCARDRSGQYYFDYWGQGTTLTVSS VL: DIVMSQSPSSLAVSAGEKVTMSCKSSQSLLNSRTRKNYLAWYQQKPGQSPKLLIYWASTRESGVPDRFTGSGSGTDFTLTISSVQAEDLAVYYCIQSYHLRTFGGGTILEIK
0.13

# return recorded EC50 of dTomato induction (CD69 promoter), Jurkat-CD69-dTomato cells, 24 h for entry F332-4D6 (antibody, mouse IgG2a, V domains shown, also called F332-4D6-2; F322-4D6) VH: QVQLQQSGAELGKPGTSVKLSCKASGYTFTSYWIHWVKQRPGQGLEWIGNINPNSGSTNYNEKFKRKATLTADKSSSTAYMQLSTLTSEDFAVYYCTRDTSGQYYFDYWGQGTTLTVSS VL: DIVMSQSPSSLAVSAGEKVTMSCKSSQSLLNSRTRKNYLAWYQQKPGQSPKVLIYWASTRESGVPDRFTGSGSGTDFTLTISSVQAEDLAVYYCKQSYHLRTFGGGTKLEIK
0.18

# return recorded EC50 of dTomato induction (CD69 promoter), Jurkat-CD69-dTomato cells, 24 h for entry F332-7B7 (antibody, mouse IgG2a, V domains shown, also called F332-7B7-2) VH: QVQLQQPGTELGKPGTSVKLSCKASGYTFTNYWMHWVKQRPGQGLEWIGNINPNSGSTNYNQKFKSKATLTLDKSSSTAYMQFSTLTSEDSAVYYCTRDSSGQYYFDYWGQGTTLTVSS VL: DIVMSQSPSSLAVSAGEKVTMSCKSSQSLLNSRTRKNYLAWYQQKPGQSPKLLIYWASTRESGVPDRFTGSGSGTDFTLTISSVQAEDLAVYYCIQSFHLRTFGGGTKLEIK
0.25

# return recorded EC50 of dTomato induction (CD69 promoter), Jurkat-CD69-dTomato cells, 24 h for entry F332-5F2 (antibody, mouse IgG2b, V domains shown, also called F332-5F2-2; F332-5F2 (6G8, 13A3)) VH: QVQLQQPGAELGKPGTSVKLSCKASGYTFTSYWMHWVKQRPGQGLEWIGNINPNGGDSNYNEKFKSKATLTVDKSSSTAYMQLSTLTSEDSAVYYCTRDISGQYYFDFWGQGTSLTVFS VL: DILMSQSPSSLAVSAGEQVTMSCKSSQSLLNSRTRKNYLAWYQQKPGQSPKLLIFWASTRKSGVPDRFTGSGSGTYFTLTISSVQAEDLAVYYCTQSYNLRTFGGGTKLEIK
0.19

# return recorded EC50 of dTomato induction (CD69 promoter), Jurkat-CD69-dTomato cells, 24 h for entry F332-7C5 (antibody, mouse IgG2a, V domains shown, also called F332-7C5-2; F332-7C5 (5E12, 10A8)) VH: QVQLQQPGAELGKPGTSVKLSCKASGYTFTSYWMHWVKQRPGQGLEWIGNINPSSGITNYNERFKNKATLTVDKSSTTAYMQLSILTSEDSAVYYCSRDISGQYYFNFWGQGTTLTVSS VL: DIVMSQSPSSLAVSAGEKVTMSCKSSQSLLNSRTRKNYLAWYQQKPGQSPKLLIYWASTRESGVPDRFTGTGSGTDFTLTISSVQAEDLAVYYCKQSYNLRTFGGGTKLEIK
0.23

# return recorded EC50 of dTomato induction (CD69 promoter), Jurkat-CD69-dTomato cells, 24 h for entry F332-8F7 (antibody, mouse IgG2a, V domains shown, also called F332-8F7-3) VH: QVQLQQPGAELGKPGTSVKLSCKASGYTFTSYWIHWVKQRPGQGLEWIGNINPNSGSTNYNEKFKNKATLTVDKSSSTASMQLSTLTSEDSAVYYCTRDISGQYYFDYWGQGTTLTVSS VL: DIVMSQSPSSLAVSTGGEVTMSCKSSQSLLNSRTRKNYLAWYQQKPGQSPKLLIYWASTRESGVPDRFTGSGSGTDFTLTISSVQAEDLAVYYCIQSYSLRTFGGGTKLGIK
0.22
